// data source = ChEMBL document CHEMBL4145471

Activity by entry:
# System: Candida albicans
# METHOD DESCRIPTION: Antifungal activity against Candida albicans ATCC 90028 at 2 ug/ml after 18 hrs relative to control
# Type: functional
RECORDED METRIC: Activity

CHEMICAL STRING | RECORDED MEASUREMENT
ClCCCn1nnnc1-c1ccccc1 | 95.82%
Clc1ccc(-c2nnn(CCCN3CCOCC3)n2)cc1 | 98.31%
CCOC(=O)CCn1nnc(-c2ccccc2Cl)n1 | 99.98%

----------
# Tested on: Candida albicans
# METHOD DESCRIPTION: Fungicidal activity against Candida albicans ATCC 90028 at 16 ug/ml after 48 hrs by M27-A3 microdilution method
# Assay type: functional
Activity by entry:

CHEMICAL STRING | TARGET UNDER TEST | MEASURE UNIT | Activity
ClCCCn1nnnc1-c1ccccc1Cl | Candida albicans | log10CFU/ml | 0.18
Clc1ccc(-c2nnn(CCCN3CCOCC3)n2)cc1 | Candida albicans | log10CFU/ml | 0.34
CCOC(=O)CCn1nnc(-c2ccc(Cl)cc2)n1 | Candida albicans | log10CFU/ml | 0.29
ClCCCn1nnc(-c2ccccc2Cl)n1 | Candida albicans | log10CFU/ml | 0.51
ClCCCn1nnc(-c2ccc(Cl)cc2)n1 | Candida albicans | log10CFU/ml | 0.26
ClCCCn1nnnc1-c1ccccc1 | Candida albicans | log10CFU/ml | -0.18
CCOC(=O)CCn1nnnc1-c1ccccc1Cl | Candida albicans | log10CFU/ml | -0.01
Cc1ccc(-c2nnn(CCCN3CCOCC3)n2)cc1 | Candida albicans | log10CFU/ml | 0.56
ClCCCn1nnc(-c2ccccc2)n1 | Candida albicans | log10CFU/ml | -0.23
CCOC(=O)CCn1nnc(-c2ccccc2)n1 | Candida albicans | log10CFU/ml | 0.33
CCOC(=O)CCn1nnnc1-c1ccccc1 | Candida albicans | log10CFU/ml | 0.16
CCOC(=O)CCn1nnc(-c2ccc(C)cc2)n1 | Candida albicans | log10CFU/ml | -0.23
CCOC(=O)CCn1nnnc1-c1ccc(C)cc1 | Candida albicans | log10CFU/ml | -0.54
CCOC(=O)CCn1nnc(-c2ccccc2Cl)n1 | Candida albicans | log10CFU/ml | 0.19

----------
# METHOD DESCRIPTION: Toxicity in Galleria mellonella larvae assessed as survival at 256 ug/ml after 96 hrs relative to control
# Type: organism-based
# CONDITION SET: in vivo

CHEMICAL STRING | survival at 96 h [%]
CCOC(=O)CCn1nnc(-c2ccccc2)n1 | 100
ClCCCn1nnnc1-c1ccccc1Cl | 100

----------
# Tested on: Candida albicans
# METHOD DESCRIPTION: Antifungal activity against Candida albicans ATCC 90028 at 0.0313 ug/ml after 48 hrs relative to control
# Assay type: functional
Activity by entry:

CHEMICAL STRING | MEASURE UNIT | Activity
CCOC(=O)CCn1nnc(-c2ccc(Cl)cc2)n1 | % | 99.14
CCOC(=O)CCn1nnnc1-c1ccccc1 | % | 99.23
Cc1ccc(-c2nnn(CCCN3CCOCC3)n2)cc1 | % | 99.56
CCOC(=O)CCn1nnc(-c2ccccc2Cl)n1 | % | 99.27
CCOC(=O)CCn1nnnc1-c1ccccc1Cl | % | 99.2
Clc1ccc(-c2nnn(CCCN3CCOCC3)n2)cc1 | % | 99.12
Clc1ccccc1-c1nnn(CCCN2CCOCC2)n1 | % | 99.12
CCOC(=O)CCn1nnnc1-c1ccc(C)cc1 | % | 99.34
ClCCCn1nnc(-c2ccc(Cl)cc2)n1 | % | 99
ClCCCn1nnc(-c2ccccc2)n1 | % | 99.38
CCOC(=O)CCn1nnc(-c2ccc(C)cc2)n1 | % | 98.81
c1ccc(-c2nnn(CCCN3CCOCC3)n2)cc1 | % | 98.98
CCOC(=O)CCn1nnc(-c2ccccc2)n1 | % | 99.12
ClCCCn1nnnc1-c1ccccc1 | % | 99.02
ClCCCn1nnc(-c2ccccc2Cl)n1 | % | 99.17
Cc1ccc(-c2nnn(CCCCl)n2)cc1 | % | 98.94
ClCCCn1nnnc1-c1ccccc1Cl | % | 99.38
